Target: the molecule itself
Assay: cell-based or functional assay
Provide the reported In vitro activity (% of WT), EnzChek pyrophosphate assay, forward reaction of each item.

Use these answered entries as a reference point.
1) PaUGP D67A (enzyme, UDP-glucose pyrophosphorylase of Pseudomonas aeruginosa (galU), residues 1-279, point mutant of Strep-PaUGP; Same construct as m1; source: E. coli BL21(DE3), purified (Strep-Tactin Sepharose); not shown: Strep-tagII, N-terminal, kept) MIKKCLFPAAGYGTRFLPATKAMPKEMLPVVNKPLIQYAVEEALEAGLSEIGIVTGRGKRSLEDHFAISYELEHQIRNTDKEKYLVGIRRLIDECTFAYTRQVEMKGLGHAILTGRPLIGDEPFAVVLADDLCLNLEGDSVLKQMVKLYNQFRCSIVAIQEVPPEETNKYGVIAGEMIRDDIFRVNTMVEKPKPEEAPSNLAIIGRYILTPDIFDLIEQTEPGKGGEIQITDALMKQAQDGCVLAYKFKGKRFDCGSAEGYIEATNFCYENLYKTGKAH: 3.31 % of WT
2) PaUGP Y70F (enzyme, UDP-glucose pyrophosphorylase of Pseudomonas aeruginosa (galU), residues 1-279, point mutant of Strep-PaUGP; Same construct as m1; source: E. coli BL21(DE3), purified (Strep-Tactin Sepharose); not shown: Strep-tagII, N-terminal, kept) MIKKCLFPAAGYGTRFLPATKAMPKEMLPVVNKPLIQYAVEEALEAGLSEIGIVTGRGKRSLEDHFDISFELEHQIRNTDKEKYLVGIRRLIDECTFAYTRQVEMKGLGHAILTGRPLIGDEPFAVVLADDLCLNLEGDSVLKQMVKLYNQFRCSIVAIQEVPPEETNKYGVIAGEMIRDDIFRVNTMVEKPKPEEAPSNLAIIGRYILTPDIFDLIEQTEPGKGGEIQITDALMKQAQDGCVLAYKFKGKRFDCGSAEGYIEATNFCYENLYKTGKAH: 47.2 % of WT

Could you tell me In vitro activity (% of WT), EnzChek pyrophosphate assay, forward reaction for each of these proteins? They are listed below.
1. PaUGP N266A (enzyme, UDP-glucose pyrophosphorylase of Pseudomonas aeruginosa (galU), residues 1-279, point mutant of Strep-PaUGP; Same construct as m1; source: E. coli BL21(DE3), purified (Strep-Tactin Sepharose); not shown: Strep-tagII, N-terminal, kept) MIKKCLFPAAGYGTRFLPATKAMPKEMLPVVNKPLIQYAVEEALEAGLSEIGIVTGRGKRSLEDHFDISYELEHQIRNTDKEKYLVGIRRLIDECTFAYTRQVEMKGLGHAILTGRPLIGDEPFAVVLADDLCLNLEGDSVLKQMVKLYNQFRCSIVAIQEVPPEETNKYGVIAGEMIRDDIFRVNTMVEKPKPEEAPSNLAIIGRYILTPDIFDLIEQTEPGKGGEIQITDALMKQAQDGCVLAYKFKGKRFDCGSAEGYIEATAFCYENLYKTGKAH
2. PaUGP D67A + R101A double mutant (enzyme, UDP-glucose pyrophosphorylase of Pseudomonas aeruginosa (galU), residues 1-279, double mutant of Strep-PaUGP; Same construct as m1; source: E. coli BL21(DE3), purified (Strep-Tactin Sepharose); not shown: Strep-tagII, N-terminal, kept) MIKKCLFPAAGYGTRFLPATKAMPKEMLPVVNKPLIQYAVEEALEAGLSEIGIVTGRGKRSLEDHFAISYELEHQIRNTDKEKYLVGIRRLIDECTFAYTAQVEMKGLGHAILTGRPLIGDEPFAVVLADDLCLNLEGDSVLKQMVKLYNQFRCSIVAIQEVPPEETNKYGVIAGEMIRDDIFRVNTMVEKPKPEEAPSNLAIIGRYILTPDIFDLIEQTEPGKGGEIQITDALMKQAQDGCVLAYKFKGKRFDCGSAEGYIEATNFCYENLYKTGKAH
3. PaUGP R57A (enzyme, UDP-glucose pyrophosphorylase of Pseudomonas aeruginosa (galU), residues 1-279, point mutant of Strep-PaUGP; Same construct as m1; source: E. coli BL21(DE3), purified (Strep-Tactin Sepharose); not shown: Strep-tagII, N-terminal, kept) MIKKCLFPAAGYGTRFLPATKAMPKEMLPVVNKPLIQYAVEEALEAGLSEIGIVTGAGKRSLEDHFDISYELEHQIRNTDKEKYLVGIRRLIDECTFAYTRQVEMKGLGHAILTGRPLIGDEPFAVVLADDLCLNLEGDSVLKQMVKLYNQFRCSIVAIQEVPPEETNKYGVIAGEMIRDDIFRVNTMVEKPKPEEAPSNLAIIGRYILTPDIFDLIEQTEPGKGGEIQITDALMKQAQDGCVLAYKFKGKRFDCGSAEGYIEATNFCYENLYKTGKAH
4. PaUGP E63D (enzyme, UDP-glucose pyrophosphorylase of Pseudomonas aeruginosa (galU), residues 1-279, point mutant of Strep-PaUGP; Same construct as m1; source: E. coli BL21(DE3), purified (Strep-Tactin Sepharose); not shown: Strep-tagII, N-terminal, kept) MIKKCLFPAAGYGTRFLPATKAMPKEMLPVVNKPLIQYAVEEALEAGLSEIGIVTGRGKRSLDDHFDISYELEHQIRNTDKEKYLVGIRRLIDECTFAYTRQVEMKGLGHAILTGRPLIGDEPFAVVLADDLCLNLEGDSVLKQMVKLYNQFRCSIVAIQEVPPEETNKYGVIAGEMIRDDIFRVNTMVEKPKPEEAPSNLAIIGRYILTPDIFDLIEQTEPGKGGEIQITDALMKQAQDGCVLAYKFKGKRFDCGSAEGYIEATNFCYENLYKTGKAH
5. PaUGP R57K (enzyme, UDP-glucose pyrophosphorylase of Pseudomonas aeruginosa (galU), residues 1-279, point mutant of Strep-PaUGP; Same construct as m1; source: E. coli BL21(DE3), purified (Strep-Tactin Sepharose); not shown: Strep-tagII, N-terminal, kept) MIKKCLFPAAGYGTRFLPATKAMPKEMLPVVNKPLIQYAVEEALEAGLSEIGIVTGKGKRSLEDHFDISYELEHQIRNTDKEKYLVGIRRLIDECTFAYTRQVEMKGLGHAILTGRPLIGDEPFAVVLADDLCLNLEGDSVLKQMVKLYNQFRCSIVAIQEVPPEETNKYGVIAGEMIRDDIFRVNTMVEKPKPEEAPSNLAIIGRYILTPDIFDLIEQTEPGKGGEIQITDALMKQAQDGCVLAYKFKGKRFDCGSAEGYIEATNFCYENLYKTGKAH
6. PaUGP Y70A (enzyme, UDP-glucose pyrophosphorylase of Pseudomonas aeruginosa (galU), residues 1-279, point mutant of Strep-PaUGP; Same construct as m1; source: E. coli BL21(DE3), purified (Strep-Tactin Sepharose); not shown: Strep-tagII, N-terminal, kept) MIKKCLFPAAGYGTRFLPATKAMPKEMLPVVNKPLIQYAVEEALEAGLSEIGIVTGRGKRSLEDHFDISAELEHQIRNTDKEKYLVGIRRLIDECTFAYTRQVEMKGLGHAILTGRPLIGDEPFAVVLADDLCLNLEGDSVLKQMVKLYNQFRCSIVAIQEVPPEETNKYGVIAGEMIRDDIFRVNTMVEKPKPEEAPSNLAIIGRYILTPDIFDLIEQTEPGKGGEIQITDALMKQAQDGCVLAYKFKGKRFDCGSAEGYIEATNFCYENLYKTGKAH
7. PaUGP R101K (enzyme, UDP-glucose pyrophosphorylase of Pseudomonas aeruginosa (galU), residues 1-279, point mutant of Strep-PaUGP; Same construct as m1; source: E. coli BL21(DE3), purified (Strep-Tactin Sepharose); not shown: Strep-tagII, N-terminal, kept) MIKKCLFPAAGYGTRFLPATKAMPKEMLPVVNKPLIQYAVEEALEAGLSEIGIVTGRGKRSLEDHFDISYELEHQIRNTDKEKYLVGIRRLIDECTFAYTKQVEMKGLGHAILTGRPLIGDEPFAVVLADDLCLNLEGDSVLKQMVKLYNQFRCSIVAIQEVPPEETNKYGVIAGEMIRDDIFRVNTMVEKPKPEEAPSNLAIIGRYILTPDIFDLIEQTEPGKGGEIQITDALMKQAQDGCVLAYKFKGKRFDCGSAEGYIEATNFCYENLYKTGKAH

## Result
64.9 % of WT
1.57 % of WT
1.28 % of WT
5.68 % of WT
2.36 % of WT
4.08 % of WT
1.31 % of WT

Where do the numbers come from? From paper PMC11005391.
